These data points were gathered from PubChem BioAssay (NCI).

Assay: NCI Yeast Anticancer Drug Screen. Data for the cln2 rad14 strain (AID 165);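 note: 0% = growth equal to vehicle treated cultures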
Conditions: S. cerevisiae cln2 rad14 strain, at 5.0 µM (retest, dose inferred, filed as 0.5)
Method: Growth inhibition of yeast strains with defined genetic alterations is measured as a screen for potential anti-cancer activity. Selected strains with alterations in DNA damage repair or cell cycle control were exposed to compounds and growth inhibition was measured relative to vehicle treated controls. The strain used in this assay is cln2 rad14
The panel holds about 79,000 compounds, 15% with a hit somewhere; the sample as a whole holds those more often. Calls of active or inactive are those of the source. Cut-off read from the data, not from the text of the source: active = growth inhibition above about 70%; inactive = the rest.
Mark one answer only. Choices: active, inactive

Answered cases to consult:
COC1=C(C)C(=O)c2c(c(COC(N)=O)c3n2CC2C3N2C)C1=O (centres undefined) | inactive
O=C(O)CN(CCN(CC(=O)O)CC(=O)O)CC(=O)O | inactive
C[C@]12CC/C(=N\OC(=O)Nc3ccccc3)C=C1CC[C@@H]1C2CC[C@@]2(C)C1CC[C@@H]2OC(=O)Nc1ccccc1 (some centres undefined) | inactive
C/C(=N\N=C(N)N)C(CN1CCOCC1)C(c1ccccc1)c1c(O)c2ccccc2oc1=O (centres undefined) | inactive
CC(C)(c1ccccc1)c1ccc(O)cc1 | inactive
CC(=O)O.CC(=O)[O-].CC(=O)[O-].[Co+3].[NH-]CC[NH-].[NH-]CC[NH-] | inactive
CC/C(=C(/CC)c1ccc(OP(N)(=O)N(CCCl)CCCl)cc1)c1ccc(OP(N)(=O)N(CCCl)CCCl)cc1 (centres undefined) | inactive
Oc1cccc[c]1[Hg][Cl] | active

Here's the next entry for you.
IN: Query: recorded result category for COc1cccc(C(Cc2ccc(N3C(N)=NC(N)=NC3(C)C)cc2)C(=O)Nc2ccc(S(=O)(=O)F)cc2)c1 (centres undefined) in this test
OUT: inactive

* * *

assay: NCI Yeast Anticancer Drug Screen. Data for the mlh1 rad18 strain (AID 175); details: S. cerevisiae mlh1 rad18 strain growth inhibition; at 50.0 µM (retest, dose inferred, filed as 5.0); hits give high values
This is part of a sample that, as a whole, favours compounds with a hit. Of some 79,000 tested, about 15% had one in any assay.
Measurement Name: growth inhibition (%)
# value in %; strip the unit string

IN: Which growth inhibition reading was recorded for the molecule CC1=CC2OC3CC4OC(=O)/C=C/C=C/C(C(C)O)OCC(O)C(C)CC(=O)OCC2(CC1O)C4(C)C31CO1 (stereo unspecified) ?
OUT: 98

IN: Reported growth inhibition, molecule CCOc1cc(/C=C/[N+](=O)[O-])ccc1O : ____
OUT: 94

IN: # input molecule: Oc1c(Cl)c(Cl)c(Cl)c(Cl)c1Cl ; wanted: its growth inhibition
OUT: 99

IN: growth inhibition lookup needed for OCC(O)C(O)CO (stereo unspecified) (tested in a mixture with another compound) , thanks.
OUT: 29

IN: Entry C=C(C)C1(CCCC)C(=O)NC(=S)NC1=O : reported growth inhibition = ?
OUT: 85

IN: Any idea what growth inhibition was measured for c1cc[c]([Sn]([c]2ccccc2)([c]2ccccc2)[CH]2CCCCC2)cc1 ?
OUT: 91

* * *

assay: NCI Yeast Anticancer Drug Screen. Data for the rad50 strain (AID 155);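 note: 0% = growth of vehicle-only cultures of the same strain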; details: S. cerevisiae rad50 strain growth inhibition; at 5.0 µM (retest, dose inferred, filed as 0.5)
Compounds without any hit were thinned out: in the full panel of roughly 79,000, 15% have a hit. Activity calls are given as the source filed them. Cut-off read from the data, not from the text of the source: active = growth inhibition above about 70%; inactive = the rest.
Outcomes you can answer with include only these: active, inactive

Use the examples below as a reference point.
CN(C)c1ccc(N=Cc2c([O-])ccc3ccccc23)cc1.[C-]#[O+].[C-]#[O+].[Ir] | inactive
ClCCN(CCCl)c1ccc(C2N(Cc3ccc(N(CCCl)CCCl)cc3Cl)CCCN2Cc2ccc(N(CCCl)CCCl)cc2Cl)cc1 | inactive
N=P(c1ccccc1)(c1ccccc1)c1ccccc1 (tested in a mixture with another compound) | inactive
CC12CCC(C)(c3cc(O)c(O)cc31)c1cc(O)c(O)cc12 | inactive
Clc1c(Cl)c(Cl)c([S][Pb]([c]2ccccc2)([c]2ccccc2)[c]2ccccc2)c(Cl)c1Cl | active

IN: Status in this test for O=C(COc1ccc(Cl)cc1Cl)NO ?
OUT: inactive

IN: Call for entry C=CCOc1cc2c(ccc1=O)-c1c(cc(OC)c(OC)c1OC)CCC2NC(C)=O (centres undefined) :
OUT: inactive

IN: What did this assay record as the result for CC(=O)C(Br)C(C)=O.CC(=O)C(Br)C(C)=O.CC(=O)C(Br)C(C)=O.[Rh] ?
OUT: inactive

IN: For this molecule, state the assay outcome: C[N+]1(CCCl)CC[N+](C)(CCCl)CC1 (centres undefined)
OUT: inactive
